TESTED_SYSTEM: ROCK2 kinase (Homo sapiens, UniProt O75116)
Construct: purchased Invitrogen PV3759
Sequence (O75116 whole entry): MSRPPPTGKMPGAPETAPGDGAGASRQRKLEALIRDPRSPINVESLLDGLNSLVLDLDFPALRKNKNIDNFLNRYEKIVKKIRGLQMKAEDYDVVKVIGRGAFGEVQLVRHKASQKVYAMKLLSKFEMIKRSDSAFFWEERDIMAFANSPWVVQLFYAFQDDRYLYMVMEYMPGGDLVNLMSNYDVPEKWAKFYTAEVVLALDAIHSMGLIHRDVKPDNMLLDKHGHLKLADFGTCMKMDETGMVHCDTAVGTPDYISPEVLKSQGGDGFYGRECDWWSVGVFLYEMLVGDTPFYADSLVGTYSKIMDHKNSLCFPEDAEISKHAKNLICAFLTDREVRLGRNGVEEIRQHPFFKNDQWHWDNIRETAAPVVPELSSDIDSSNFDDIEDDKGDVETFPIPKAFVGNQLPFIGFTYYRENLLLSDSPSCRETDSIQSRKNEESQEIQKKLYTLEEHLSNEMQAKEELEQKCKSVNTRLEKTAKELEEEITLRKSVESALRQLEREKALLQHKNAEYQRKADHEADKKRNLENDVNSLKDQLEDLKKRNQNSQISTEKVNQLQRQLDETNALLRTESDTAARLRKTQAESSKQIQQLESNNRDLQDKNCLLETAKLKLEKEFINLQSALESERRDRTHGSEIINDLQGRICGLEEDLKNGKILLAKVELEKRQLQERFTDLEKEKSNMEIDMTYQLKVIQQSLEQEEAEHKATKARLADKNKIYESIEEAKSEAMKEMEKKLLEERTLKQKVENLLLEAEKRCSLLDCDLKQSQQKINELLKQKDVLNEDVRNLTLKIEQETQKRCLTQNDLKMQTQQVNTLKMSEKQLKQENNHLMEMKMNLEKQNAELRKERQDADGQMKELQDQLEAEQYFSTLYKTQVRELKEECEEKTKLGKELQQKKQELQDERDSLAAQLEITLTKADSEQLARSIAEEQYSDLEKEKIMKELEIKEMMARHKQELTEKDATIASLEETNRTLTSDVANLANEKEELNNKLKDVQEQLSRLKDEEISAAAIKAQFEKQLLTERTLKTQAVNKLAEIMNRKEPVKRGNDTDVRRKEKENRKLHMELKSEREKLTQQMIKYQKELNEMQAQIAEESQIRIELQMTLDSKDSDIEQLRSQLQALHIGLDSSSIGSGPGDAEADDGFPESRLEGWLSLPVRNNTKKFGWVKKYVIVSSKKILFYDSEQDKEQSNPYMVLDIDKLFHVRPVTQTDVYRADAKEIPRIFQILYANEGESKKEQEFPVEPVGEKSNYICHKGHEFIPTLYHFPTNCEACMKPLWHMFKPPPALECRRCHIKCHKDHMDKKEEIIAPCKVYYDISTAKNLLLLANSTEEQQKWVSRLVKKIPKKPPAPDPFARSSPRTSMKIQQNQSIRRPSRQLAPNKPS
TEST_DESCRIPTION: In vitro evaluation of ROCK2 kinase activity (HTRF KinEASE-STK time-resolved fluorometric assay)
Assay type: biochemical
pIC50: −log10 of the molar value.
Each entry below carries its recorded pIC50.
ATTRIBUTE_MEASURED: pIC50

compound=O=C(NC1CCCC1)c1cccc([C@H](CO)NC(=O)N2CCc3cc(-c4cn[nH]c4)c(F)cc32)c1 attribute_measured=pIC50 test_result="6.30 to 7.30"
compound=O=C(COc1cc(F)cc([C@@H](CO)NC(=O)N2CCc3cc(-c4cn[nH]c4)c(F)cc32)c1)NC1CC(F)(F)C1 attribute_measured=pIC50 test_result="≥ 7.30"
compound=O=C(NCc1cc(F)cc(OC(F)(F)F)c1)N1CCc2cc(-c3cn[nH]c3)c(F)cc21 attribute_measured=pIC50 test_result="5.30 to 6.30"
compound=COc1cccc(CNC(=O)c2ncn3cc(-c4cn[nH]c4)ccc23)c1 attribute_measured=pIC50 test_result="≥ 7.30"
compound=O=C(NCc1cc(F)cc(OCC2CC2)c1)N1CCc2cc(-c3c[nH]nc3F)c(F)cc21 attribute_measured=pIC50 test_result="≥ 7.30"
compound=COc1cc(F)cc(CNC(=O)N2CCCc3nc(-c4cn[nH]c4)sc32)c1 attribute_measured=pIC50 test_result="≥ 7.30"
compound=O=C(NCc1ccccc1)N1CCc2cc(-c3ccc4[nH]ccc4c3)ccc21 attribute_measured=pIC50 test_result="5.30 to 6.30"
compound=COc1cc(F)cc(CNC(=O)n2ccc3cc(-c4cn[nH]c4)ccc32)c1 attribute_measured=pIC50 test_result="6.30 to 7.30"
compound=CN(C)CCN(Cc1ccccc1)C(=O)N1CCc2cc(-c3cn[nH]c3)ccc21 attribute_measured=pIC50 test_result="6.30 to 7.30"
compound=COc1cc(F)cc(CNC(=O)N2CCc3nc(-c4cn[nH]c4)ccc32)c1 attribute_measured=pIC50 test_result="6.30 to 7.30"
compound="COc1cc(F)cc(C(CN)NC(=O)N2CCc3cc(-c4cn[nH]c4)c(F)cc32)c1 (centres unmarked)" attribute_measured=pIC50 test_result="≥ 7.30"
compound=O=C(NCc1ccn[nH]1)N1CCc2cc(-c3cn[nH]c3)ccc21 attribute_measured=pIC50 test_result="5.30 to 6.30"
compound=N#Cc1cc(F)cc(CNC(=O)N2CCc3cc(-c4c[nH]nc4N)c(F)cc32)c1 attribute_measured=pIC50 test_result="5.30 to 6.30"
compound=COc1cc(F)cc([C@@H](C)NC(=O)c2ncn3cc(-c4cn[nH]c4F)ccc23)c1 attribute_measured=pIC50 test_result="≥ 7.30"
compound=COc1cc(F)cc(CN(C(=O)N2CCc3cc(-c4cn[nH]c4)ccc3C2)C2COC2)c1 attribute_measured=pIC50 test_result="6.30 to 7.30"
compound=COc1cc(F)cc(CNC(=O)N2CCc3cc(-c4cn[nH]c4)ncc32)c1 attribute_measured=pIC50 test_result="≥ 7.30"
compound=COc1cc(F)cc(CNC(=O)N2CCc3cc(-c4cn[nH]c4F)ccc32)c1 attribute_measured=pIC50 test_result="≥ 7.30"
compound=Cn1cnc(CNC(=O)N2CCc3cc(-c4cn[nH]c4)ccc32)c1 attribute_measured=pIC50 test_result="6.30 to 7.30"
compound=CC(C)NC(=O)COc1cc(F)cc([C@@H](CO)NC(=O)N2CCc3cc(-c4cn[nH]c4)c(F)cc32)c1 attribute_measured=pIC50 test_result="≥ 7.30"
compound=CN(C)C[C@H](NC(=O)N1CCc2cc(-c3c[nH]nc3F)c(F)cc21)c1cc(F)cc(F)c1 attribute_measured=pIC50 test_result="6.30 to 7.30"

Just for reference, patent US20230050653A1 is where these values come from.
